System: HCT-15
readout-name: GI50
Write the numeric value and follow it with the unit.

I am curious: what GI50 value has been reported for Cc1c2ccccc2c(CSC(=N)N)c2ccccc12 ?
0.269 µM

I am curious: what GI50 value has been reported for CC[C@]1(O)C[C@H]2CN(CCc3c([nH]c4ccccc34)[C@@](C(=O)OC)(c3cc4c(cc3OC)N(C)[C@H]3[C@@](O)(C(=O)OC)[C@H](OC(C)=O)[C@]5(CC)C=CCN6CC[C@]43[C@@H]65)C2)C1 ?
0.0241 µM

I am curious: what GI50 value has been reported for C/C(=N/Nc1ccc([N+](=O)[O-])cc1[N+](=O)[O-])C(CC(C(=O)NCc1ccccc1)/C(C)=N\Nc1ccc([N+](=O)[O-])cc1[N+](=O)[O-])C(=O)NCc1ccccc1 (centres undefined) ?
10.3 µM

I am curious: what GI50 value has been reported for COc1cc(CNc2cnc3cc(N)ccc3n2)cc(OC)c1OC ?
23 µM

* * *

Test system: SN12C
experimental-protocol: NCI tumour cell line growth inhibition, 48 h
Active and inactive are the calls of the source. Rule as the data show it: active = GI50 up to about 1.1 µM and inactive = higher.
In this exercise, the only acceptable responses are active, inactive

# count of solved cases: 5
C[C@]12CC[C@H](O)C[C@@H]1CC[C@@H]1[C@@H]2CC[C@]2(C)[C@@H](c3cc(C(F)(F)F)[nH]n3)CC[C@@H]12    inactive
O=C1C=CC(=O)N1n1c(-c2ccccc2)n[nH]c1=O    inactive
O=C(/C=C/c1ccsc1)c1ccc(Cl)s1    inactive
Clc1ccc(-c2nnc(-c3cccc4ccccc34)o2)cc1Cl    inactive
CC(C)NC(=O)OCc1c2c(n(C)c1COC(=O)NC(C)C)-c1ccccc1CC2    inactive

I'd appreciate the recorded outcome for C=C(C)[C@@H]1CC[C@@H](C)[C@](O)([C@@H]2C[C@@H]([C@H](COC(=O)c3ccccc3)OC(=O)c3ccccc3)OC2=O)C1 from this test.
inactive

I'd appreciate the recorded outcome for CCC1(C)C=Cc2c(cc(O)c3c(=O)c4ccccc4n(C)c23)O1 (stereo not drawn) from this test.
inactive

I'd appreciate the recorded outcome for Cc1c2cc[n+](C)cc2c(C)c2c1[nH]c1ccccc12 from this test.
active

* * *

Tested on: MOLT-4
experimental-protocol: NCI tumour cell line growth inhibition, 48 h
Calls of active or inactive are those of the source. No stated cut-off is given here; in the data, active = GI50 up to about 1.1 µM and inactive = higher.
In this exercise, the only acceptable responses are 1 = active, -1 = inactive

# count of solved cases: 5
CC(C)C[C@H](NC(=O)[C@H](Cc1ccc(F)cc1)NC(=O)c1ccccn1)B(O)O    1
CCC/N=C(/NC(=O)c1ccc(Cl)cc1)SC    -1
Cc1cc(C(C)(C)C)cc(CNC2CCCCC2)c1O    -1
CCN(CC)Cc1nc2sc3c(c2c(=O)n1-c1ccccc1)CCCC3    -1
NC(Cc1ccccc1)C(=O)N[C@H]1c2ccsc2/C(=N/O)[C@H]1O (stereo partly drawn)    -1

I'd appreciate the recorded outcome for CCOc1nc2c(N3CCCC3)nc(N3CCNCC3)nc2nc1NCc1ccccc1 from this test.
1

I'd appreciate the recorded outcome for O=C(Nc1ccccc1)c1cc2c(cc1Cl)SC(NNCCO)=NS2(=O)=O from this test.
-1

I'd appreciate the recorded outcome for O=C(Nc1ccc(Cl)cc1Cl)C(=O)Nn1c(S)nc2ccccc2c1=O from this test.
-1

* * *

Measured GI50 by item
System: SW-620
experimental-protocol: NCI tumour cell line growth inhibition, 48 h
The source made the active and inactive calls. Cut-off read from the data, not from the text of the source: active = GI50 up to about 1.1 µM and inactive = higher.

O=C(OCC(OC(=O)c1ccccc1)C(OC(=O)c1ccccc1)C(OC(=O)c1ccccc1)c1cnn(-c2ccccc2)n1)c1ccccc1 (stereo not given)    > 100 µM (inactive)
COC(=O)Cc1c(-c2c(CC(=O)OC)c3ccccc3n2C2OC(COC(C)=O)C(OC(C)=O)C(OC(C)=O)C2OC(C)=O)[nH]c2ccccc12 (stereo not given)    > 100 µM (inactive)
CCOC(=O)C(Cc1ccc2ccccc2c1)(Cc1ccc2ccccc2c1)C(C)=O    > 10 µM (inactive)
Cc1ccc(O)c(C(=O)CCCC(=O)c2cc(C)ccc2O)c1    30.2 µM (inactive)
N=c1sc(N2CCOCC2)nn1CC(=O)c1ccccc1    > 100 µM (inactive)
NCCC(=O)NC(Cc1c[nH]cn1)C(=O)O (stereo not given)    > 100 µM (inactive)

Give GI50 (SW-620) of the following molecule: CN(C)CCNc1nc2c(no[n+]2[O-])c2ccccc12.[O-][Cl+3]([O-])([O-])O
11.1 µM (inactive)

Give GI50 (SW-620) of the following molecule: Cc1c(/C=N/NS(=O)(=O)c2ccccc2)no[n+]1[O-]
> 100 µM (inactive)

Give GI50 (SW-620) of the following molecule: O=C1CN=C(c2ccccc2)c2ccncc2N1
> 100 µM (inactive)

Give GI50 (SW-620) of the following molecule: C=CCn1c(=O)c(Br)nn(CCOCP(=O)(OCC)OCC)c1=O
> 100 µM (inactive)

Value source: ChEMBL document CHEMBL1201862
